// Retention_time lookup, one value per entry
- test-details: Retention time of the compound by HPLC analysis
- Type: physicochemical
Report the value in min with no unit label.

Use these answered entries as a reference point.
INSERT INTO assay_data (line_notation, meas_value) VALUES
  ('CC(C)[C@H]1C(=O)NCC(=O)N(C)CC(=O)N2CCCC[C@H]2C(=O)NC[C@@H](NC(=O)c2nc3ccccc3cc2O)C(=O)N(C)[C@@H](C(C)C)C(=O)NCC(=O)N(C)CC(=O)N2CCCC[C@H]2C(=O)NC[C@@H](NC(=O)c2nc3ccccc3cc2O)C(=O)N1C', 16.8),
  ('C[C@H]1NC(=O)[C@@H]2CCCCN2C(=O)CN(C)C(=O)CNC(=O)[C@@H]2CCCCN2C(=O)[C@H](NC(=O)c2nc3ccccc3cc2O)[C@@H](C)NC(=O)[C@@H]2CCCCN2C(=O)CN(C)C(=O)CNC(=O)[C@@H]2CCCCN2C(=O)[C@@H]1NC(=O)c1nc2ccccc2cc1O', 16.7),
  ('CC(C)[C@H]1C(=O)N[C@H](C)[C@@H](NC(=O)c2nc3ccccc3cc2O)C(=O)N2CCCC[C@H]2C(=O)NCC(=O)N(C)CC(=O)N(C)[C@@H](C(C)C)C(=O)N[C@H](C)[C@@H](NC(=O)c2nc3ccccc3cc2O)C(=O)N2CCCC[C@H]2C(=O)NCC(=O)N(C)CC(=O)N1C', 17.6);

Q. Requested read-out: Retention_time. Entry: CC(C)[C@H]1C(=O)NC[C@@H](NC(=O)c2nc3ccccc3cc2O)C(=O)N2CCCC[C@H]2C(=O)NCC(=O)N(C)CC(=O)N2CCC[C@H]2C(=O)NC[C@@H](NC(=O)c2nc3ccccc3cc2O)C(=O)N2CCCC[C@H]2C(=O)NCC(=O)N(C)CC(=O)N1C
A. 15

* * *

// Tm lookup, one value per entry
- Tested on: Clupeidae
- test-details: Binding affinity to Herring sperm DNA assessed as melting temperature by differential scanning calorimetric analysis
Report the value in °C with no unit label.

INSERT INTO results (line_notation, measurement_kind, meas_value) VALUES
  ('O=C(N[C@@H]1CNC(=O)[C@@H]2CCCCN2C(=O)COCCNC(=O)[C@@H]2CCCCN2C(=O)[C@H](NC(=O)c2nc3ccccc3cc2O)CNC(=O)[C@@H]2CCCCN2C(=O)COCCNC(=O)[C@@H]2CCCCN2C1=O)c1nc2ccccc2cc1O', 'Tm', 68),
  ('CC(C)[C@H]1COC[C@@H](NC(=O)c2nc3ccccc3cc2O)C(=O)N2CCCC[C@H]2C(=O)NCC(=O)N(C)CC(=O)N(C)[C@@H](C(C)C)COC[C@@H](NC(=O)c2nc3ccccc3cc2O)C(=O)N2CCCC[C@H]2C(=O)NCC(=O)N(C)CC(=O)N1C', 'Tm', 91),
  ('CN1CC(=O)N2CCCC[C@H]2COC[C@@H](NC(=O)c2nc3ccccc3cc2O)C(=O)N2CCCC[C@H]2C(=O)NCC(=O)N(C)CC(=O)N2CCCC[C@H]2C(=O)NC[C@@H](NC(=O)c2nc3ccccc3cc2O)C(=O)N2CCCC[C@H]2C(=O)NCC1=O', 'Tm', 94),
  ('CC[C@H](C)[C@H]1C(=O)N[C@H](C)[C@@H](NC(=O)c2nc3ccccc3cc2O)C(=O)N2CCCC[C@H]2C(=O)NCC(=O)N(C)CC(=O)N(C)[C@@H]([C@@H](C)CC)C(=O)N[C@H](C)[C@@H](NC(=O)c2nc3ccccc3cc2O)C(=O)N2CCCC[C@H]2C(=O)NCC(=O)N(C)CC(=O)N1C', 'Tm', 85),
  ('CC(C)[C@H]1C(=O)NC[C@@H](NC(=O)c2nc3ccccc3cc2O)C(=O)N2CCCC[C@H]2C(=O)NCC(=O)N(C)CC(=O)N(C)[C@@H](C(C)C)C(=O)OC[C@@H](NC(=O)c2nc3ccccc3cc2O)C(=O)N2CCCC[C@H]2C(=O)NCC(=O)N(C)CC(=O)N1C', 'Tm', 97);

Q. Requested read-out: Tm. Entry: CC(C)[C@H]1C(=O)O[C@H](C)[C@@H](NC(=O)c2nc3ccccc3cc2O)C(=O)N2CCCC[C@H]2C(=O)NCC(=O)N(C)CC(=O)N(C)[C@@H](C(C)C)C(=O)O[C@H](C)[C@@H](NC(=O)c2nc3ccccc3cc2O)C(=O)N2CCCC[C@H]2C(=O)NCC(=O)N(C)CC(=O)N1C
A. 85

Q. What would you report for CC(C)[C@H]1COC[C@@H](NC(=O)c2nc3ccccc3cc2O)C(=O)N2CCCC[C@H]2C(=O)NCC(=O)N(C)CC(=O)N(C)[C@@H](C(C)C)C(=O)NC[C@@H](NC(=O)c2nc3ccccc3cc2O)C(=O)N2CCCC[C@H]2C(=O)NCC(=O)N(C)CC(=O)N1C ?
A. 92

Q. What would you report for CC(C)[C@H]1C(=O)NC[C@@H](NC(=O)c2nc3ccccc3cc2O)C(=O)N2CCCC[C@H]2C(=O)NCC(=O)N(C)CC(=O)N2CCC[C@H]2C(=O)NC[C@@H](NC(=O)c2nc3ccccc3cc2O)C(=O)N2CCCC[C@H]2C(=O)NCC(=O)N(C)CC(=O)N1C ?
A. 88

Q. What would you report for CC(C)[C@H]1C(=O)NC[C@@H](NC(=O)c2nc3ccccc3cc2O)C(=O)N2CCCC[C@H]2C(=O)NCC(=O)N(C)CC(=O)N2CCCC[C@H]2C(=O)NC[C@@H](NC(=O)c2nc3ccccc3cc2O)C(=O)N2CCCC[C@H]2C(=O)NCC(=O)N(C)CC(=O)N1C ?
A. 92

Q. What would you report for CC(C)[C@H]1C(=O)NC[C@@H](NC(=O)c2nc3ccccc3cc2O)C(=O)N2CCCC[C@H]2C(=O)NCC(=O)N(C)CC(=O)N(C)[C@@H](C2CCCCC2)C(=O)NC[C@@H](NC(=O)c2nc3ccccc3cc2O)C(=O)N2CCCC[C@H]2C(=O)NCC(=O)N(C)CC(=O)N1C ?
A. 86

Q. What would you report for CC[C@H](C)[C@H]1C(=O)NC[C@@H](NC(=O)c2nc3ccccc3cc2O)C(=O)N2CCCC[C@H]2C(=O)NCC(=O)N(C)CC(=O)N(C)[C@@H](C(C)C)C(=O)NC[C@@H](NC(=O)c2nc3ccccc3cc2O)C(=O)N2CCCC[C@H]2C(=O)NCC(=O)N(C)CC(=O)N1C ?
A. 89

Q. What would you report for CC(C)[C@H]1C(=O)NC[C@@H](NC(=O)c2nc3ccccc3cc2O)C(=O)N2CCCC[C@H]2C(=O)NCCOCC(=O)N(C)[C@@H](C(C)C)C(=O)NC[C@@H](NC(=O)c2nc3ccccc3cc2O)C(=O)N2CCCC[C@H]2C(=O)NCCOCC(=O)N1C ?
A. 68
